Values were extracted from paper PMC9841532.

Could you please report measured CYP3A4 % inh. at 10 μM, DBF for the items listed next?
- studyTarget: CYP3A4 (Homo sapiens)
- Construct: host or cells: insect cell microsomes
- Sequence (P08684 whole entry): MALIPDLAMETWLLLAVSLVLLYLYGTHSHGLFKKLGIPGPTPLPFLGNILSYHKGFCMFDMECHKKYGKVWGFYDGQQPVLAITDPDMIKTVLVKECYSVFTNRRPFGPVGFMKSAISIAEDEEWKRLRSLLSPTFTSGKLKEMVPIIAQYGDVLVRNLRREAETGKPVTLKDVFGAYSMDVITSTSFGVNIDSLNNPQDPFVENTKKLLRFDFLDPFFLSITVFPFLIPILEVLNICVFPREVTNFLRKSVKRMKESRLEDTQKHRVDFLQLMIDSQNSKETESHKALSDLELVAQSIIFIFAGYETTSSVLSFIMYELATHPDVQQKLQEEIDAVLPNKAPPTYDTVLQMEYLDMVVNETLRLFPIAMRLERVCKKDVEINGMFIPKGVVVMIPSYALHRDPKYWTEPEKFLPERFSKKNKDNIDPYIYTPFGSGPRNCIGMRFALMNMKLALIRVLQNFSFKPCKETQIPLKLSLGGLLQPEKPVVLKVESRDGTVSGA
- experimentSummary: CYP3A4 inhibition (fluorescence, substrates DBF or 7-BFC)
- Assay type: biochemical
- experimentalContext: 10 μM, substrate dibenzylfluorescein
Give your result in % as a bare value.

Find the recorded CYP3A4 % inh. at 10 μM, DBF belonging to CC1=C(C(=O)OC(C)C)C(c2cocn2)n2c(nc3cc(F)ccc32)N1 (stereo not shown) [18b] and report it.
31

Param item = CC1=C(C(=O)OC(C)C)C(c2ccco2)n2c(nc3cc(F)ccc32)N1 (stereo not shown) [16b] ; retrieve measured CYP3A4 % inh. at 10 μM, DBF.
40

So what does the record say about CYP3A4 % inh. at 10 μM, DBF for CC1=C(C(=O)OC(C)C)C(c2ccco2)n2c(nc3cc(F)c(F)cc32)N1 (stereo not shown) [14b] ?
39

Endpoint output: CYP3A4 % inh. at 10 μM, DBF of CC1=C(C(=O)OC(C)C)C(c2ccco2)n2c(nc3ccc(Cl)cc32)N1 (stereo not shown) [15j] . Value?
47
